- experimental target: T1, glutathione S-transferase (GST) (UniProt P08515 1-218 = GST)
- T1 construct: also called carrier protein GST
- T1 sequence (P08515 whole entry): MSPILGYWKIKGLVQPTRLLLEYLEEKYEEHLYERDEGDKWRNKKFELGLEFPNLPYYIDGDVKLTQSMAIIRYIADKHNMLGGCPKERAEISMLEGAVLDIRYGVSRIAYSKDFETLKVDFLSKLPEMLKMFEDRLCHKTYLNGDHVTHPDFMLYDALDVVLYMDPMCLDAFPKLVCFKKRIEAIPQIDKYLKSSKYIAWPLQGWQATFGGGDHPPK
- protocol summary: ELISA, Ab 0.005 µg/ml
assay endpoint: A450 (A450)
Provide only the numeric value, understood in A450.

Would you please look over these solved cases?
binder	value units	A450
rabbit monoclonal anti-mouse/human Id3, clone #BCH-4/#42-1 (antibody, V domains shown, Rabbit IgG from a rabbit hybridoma; also called m/h Id3 MoAb 42-1) VH: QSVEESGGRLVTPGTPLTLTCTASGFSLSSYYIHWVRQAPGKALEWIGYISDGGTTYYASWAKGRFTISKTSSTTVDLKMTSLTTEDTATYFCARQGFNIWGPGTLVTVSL VL: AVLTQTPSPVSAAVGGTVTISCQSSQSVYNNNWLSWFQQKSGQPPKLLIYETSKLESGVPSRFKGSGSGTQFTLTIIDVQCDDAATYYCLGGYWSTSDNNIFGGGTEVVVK	A450	0.048
rabbit monoclonal anti-human Id3, clone #BCH-4/#3-3 (antibody, V domains shown, Rabbit IgG from a rabbit hybridoma; also called h Id3 MoAb 3-3) VH: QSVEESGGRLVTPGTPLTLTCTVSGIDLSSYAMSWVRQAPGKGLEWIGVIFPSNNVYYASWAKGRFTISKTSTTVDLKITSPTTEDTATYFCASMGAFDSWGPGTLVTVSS VL: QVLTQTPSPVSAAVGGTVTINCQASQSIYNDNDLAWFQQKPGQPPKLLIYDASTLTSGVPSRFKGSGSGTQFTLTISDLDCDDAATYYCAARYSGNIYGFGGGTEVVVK	A450	0.045
rabbit monoclonal anti-mouse/human Id3, clone #BCH-4/#6-1 (antibody, V domains shown, Rabbit IgG from a rabbit hybridoma; also called m/h Id3 MoAb 6-1) VH: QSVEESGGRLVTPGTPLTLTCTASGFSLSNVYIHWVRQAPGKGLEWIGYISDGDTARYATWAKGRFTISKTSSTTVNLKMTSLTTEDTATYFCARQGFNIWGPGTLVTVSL VL: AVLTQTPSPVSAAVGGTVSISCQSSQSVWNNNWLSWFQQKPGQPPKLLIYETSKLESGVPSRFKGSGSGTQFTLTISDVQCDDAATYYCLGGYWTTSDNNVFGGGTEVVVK	A450	0.046

For the binder shown here, rabbit monoclonal anti-mouse/human Id3, clone #BCH-4/#17-3 (antibody, V domains shown, Rabbit IgG from a rabbit hybridoma; also called m/h Id3 MoAb 17-3; BCH-3/#17-3) VH: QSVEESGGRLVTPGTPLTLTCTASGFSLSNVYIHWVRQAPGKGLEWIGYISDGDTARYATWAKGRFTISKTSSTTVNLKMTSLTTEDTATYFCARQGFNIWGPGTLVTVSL VL: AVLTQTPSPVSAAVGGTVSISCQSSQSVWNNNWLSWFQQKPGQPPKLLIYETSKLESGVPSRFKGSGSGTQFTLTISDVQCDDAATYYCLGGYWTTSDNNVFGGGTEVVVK , give the reported A450. 0.048

So what does the record say about A450 for rabbit monoclonal anti-mouse/human Id3, clone #BCH-4/#16-1 (antibody, V domains shown, Rabbit IgG from a rabbit hybridoma; also called m/h Id3 MoAb 16-1) VH: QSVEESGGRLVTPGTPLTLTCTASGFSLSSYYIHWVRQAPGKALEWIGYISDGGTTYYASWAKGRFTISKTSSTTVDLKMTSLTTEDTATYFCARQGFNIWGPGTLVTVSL VL: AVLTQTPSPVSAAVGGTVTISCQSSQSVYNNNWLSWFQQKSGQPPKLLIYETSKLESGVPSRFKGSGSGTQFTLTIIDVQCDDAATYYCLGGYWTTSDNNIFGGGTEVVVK ? 0.048
